Values from patent US20240174727A1

- experimental_target: T1, human NPRA (human, UniProt P16066 33-1061)
- T1 sequence (looked up): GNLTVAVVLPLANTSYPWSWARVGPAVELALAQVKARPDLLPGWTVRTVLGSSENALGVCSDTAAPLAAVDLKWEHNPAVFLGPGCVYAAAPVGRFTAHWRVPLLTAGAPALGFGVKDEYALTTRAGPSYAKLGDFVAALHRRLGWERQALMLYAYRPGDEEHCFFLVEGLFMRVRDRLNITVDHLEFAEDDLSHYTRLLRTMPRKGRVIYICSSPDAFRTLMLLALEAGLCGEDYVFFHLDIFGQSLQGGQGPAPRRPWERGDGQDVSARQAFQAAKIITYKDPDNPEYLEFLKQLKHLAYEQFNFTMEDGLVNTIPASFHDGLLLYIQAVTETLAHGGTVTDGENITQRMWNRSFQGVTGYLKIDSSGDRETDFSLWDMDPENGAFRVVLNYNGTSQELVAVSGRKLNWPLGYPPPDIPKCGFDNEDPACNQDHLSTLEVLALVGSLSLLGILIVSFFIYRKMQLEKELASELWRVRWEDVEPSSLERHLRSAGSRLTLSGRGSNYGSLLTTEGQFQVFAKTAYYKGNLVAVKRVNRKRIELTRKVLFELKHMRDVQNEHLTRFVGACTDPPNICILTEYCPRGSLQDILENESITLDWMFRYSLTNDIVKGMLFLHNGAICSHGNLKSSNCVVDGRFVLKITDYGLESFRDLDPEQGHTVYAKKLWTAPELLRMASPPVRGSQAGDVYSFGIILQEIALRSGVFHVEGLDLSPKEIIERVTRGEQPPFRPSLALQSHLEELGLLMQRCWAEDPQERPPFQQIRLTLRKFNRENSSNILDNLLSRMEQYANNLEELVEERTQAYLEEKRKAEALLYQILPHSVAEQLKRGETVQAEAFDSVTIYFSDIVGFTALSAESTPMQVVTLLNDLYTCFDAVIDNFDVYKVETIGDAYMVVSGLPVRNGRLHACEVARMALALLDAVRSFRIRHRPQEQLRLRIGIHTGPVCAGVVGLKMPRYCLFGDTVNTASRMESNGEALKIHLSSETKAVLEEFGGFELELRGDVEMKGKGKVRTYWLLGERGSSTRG
- experiment_summary: cell-based or functional assay
Numbered stars: 1 amine (or outer) side, 2 acyl side, 3 side chain; on linkers, the order of the positions; unused ones are H or OH. Bridge positions count the residues as written; N and C are the ends. Square brackets hold non-standard residues; d marks the D form. Primed or numbered codes have the meaning given here. * marks the point of attachment. thioacetal = thioacetal linkage between two cysteines (intrachain bond at the bracketed Cys); C20 diacid = O=C(O)CCCCCCCCCCCCCCCCCCC(=O)*; γGlu = O=C(O)[C@H](CCC(=O)[*:2])N[*:1]; 4Pal = N[C@@H](Cc1ccncc1)C(=O)O; thioacetal″ = not defined here; βAla = NCCC(=O)O
property: cGMP Assay (EC50, pM) w/BSA
Quick reminder: number only, in pM, skip the unit.

Known cGMP Assay (EC50, pM) w/BSA results, listed for orientation:
{C20 diacid}-[γGlu]EKEKEKGEK[βAla]RSSCFGGRIDRIGHYSGLGCPSFRHGGKSSGAPPPS-NH2 (bridge 15-31 via thioacetal) [Example 76]
79900
{C20 diacid}-[γGlu]EKEKEKGS[4Pal]RRSSCFGRKIDRIGHQSGLGCPSFRHGGKSSGAPPPS-NH2 (bridge 15-31 via thioacetal) [Example 80]
4750
{C20 diacid}-[γGlu]EKEKEKGEK[βAla]RSSCFGGRIDRIGHYSGLGCPSFRHGPSSGAPPPS-NH2 (bridge 15-31 via thioacetal) [Example 60]
81700
{C20 diacid}-[γGlu]EKEKEKGS[4Pal]RRSSCFGGRIGRIGHQSGLGCPSFRHGGPSSGAPPPS-NH2 (disulfide 15-31) [Example 29]
32200
{C20 diacid}-[γGlu]EKEKEKGS[4Pal]RRSSCFGKRIDRIGHYSGLGCPSFRHGGKSSGAPPPS-NH2 (bridge 15-31 via thioacetal″; reading uncertain) [Example 81]
5710
EKXRSSCFGKRIDRIGHQSGLGCPSFRHGSPSSGAPPPS (HOOC-(CH2)18-CO-(γGlu)-EKEKEKG-PEG24-EK-βAla-RSS[CFGKRIDRIGHQSGLGC]PSFRHGSPSSGAPPPS-NH2; thioacetal linkage between the bracketed Cys) [Example 4]
6180

The binder SXRRSSCFGGRIDRIGHYSGLGCPSFRHGGKSSGAPPPS (HOOC-(CH2)18-CO-(γGlu)-EKEKEKG-(AEEA)6-S-4Pal-RRSS[CFGGRIDRIGHYSGLGC]PSFRHGGKSSGAPPPS-NH2; thioacetal linkage between the bracketed Cys) [Example 92] showed cGMP Assay (EC50, pM) w/BSA equal to 10100

Entry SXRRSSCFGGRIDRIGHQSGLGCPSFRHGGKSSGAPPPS (HOOC-(CH2)18-CO-(γGlu)-EKEKEKG-PEG24-S-4Pal-RRSS[CFGGRIDRIGHQSGLGC]PSFRHGGKSSGAPPPS-NH2; thioacetal linkage between the bracketed Cys) [Example 75] — recorded cGMP Assay (EC50, pM) w/BSA = 17000

Summary for this binder, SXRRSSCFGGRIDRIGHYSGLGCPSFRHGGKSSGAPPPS (HOOC-(CH2)18-CO-(γGlu)-EKEKEKG-(AEEA)8-S-4Pal-RRSS[CFGGRIDRIGHYSGLGC]PSFRHGGKSSGAPPPS-NH2; thioacetal linkage between the bracketed Cys) [Example 91] : cGMP Assay (EC50, pM) w/BSA is 13900

{C20 diacid}-[γGlu]EKEKEKGS[4Pal]RRSSCFGGRIDRIGHQSGLGCPSFRHSGAPPPSE-NH2 (disulfide 15-31) [Example 39] yielded cGMP Assay (EC50, pM) w/BSA of 9970
